# Target Or System: trypsin
# Test Description: TRF, 2.4 ug/mL Fab on trypsin
Value Kind: TRF signal

In the examples that follow, each entry is paired with its recorded TRF signal.
KB_B02 Fab (Fab, V domains shown) VH: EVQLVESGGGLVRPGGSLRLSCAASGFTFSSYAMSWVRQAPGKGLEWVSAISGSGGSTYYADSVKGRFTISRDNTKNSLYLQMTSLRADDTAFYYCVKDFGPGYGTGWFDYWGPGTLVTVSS VL: AVNWYQQLPGKAPKLLIYAAVGCPRILMRCKQDSDCLAGCVCGPNGFCGTGSGIPERFSGSKSGNTASLTISGLQAEDEGDYYCAAWDDSLSGPVFGGGTKLTVLG	15900
KB_C09 Fab (Fab, V domains shown) VH: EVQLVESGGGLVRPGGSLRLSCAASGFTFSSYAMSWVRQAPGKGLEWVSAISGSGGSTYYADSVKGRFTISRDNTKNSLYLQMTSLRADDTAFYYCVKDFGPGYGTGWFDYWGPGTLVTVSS VL: AVNWYQQLPGKAPKLLIYAAGRCPRILMRCKQDSDCLAGCVCGPNGFCGGGSGVPDRFSGSIDSSSNSASLTISGLRAEDEADYYCQSYDSSNHWVFGGGTKLTVLG	205000

Consider the additional binder presented here.
q: Fill in the blank: the reported TRF signal of KB_A07 Fab (Fab, V domains shown) VH: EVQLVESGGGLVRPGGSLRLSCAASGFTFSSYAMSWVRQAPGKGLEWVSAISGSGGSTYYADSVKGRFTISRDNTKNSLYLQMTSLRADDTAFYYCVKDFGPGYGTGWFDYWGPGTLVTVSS VL: YLNWYQQKPGKAPKLLIYAAGVCPRILMRCKQDSDCLAGCVCGPNGFCGSRSGVPSRFSGSGSGTDFTLTISSLQPEDFATYYCQQGASPPYTFGQGTKVEIKR is ____.
a: 201000
